Tested on: HCT-116
assay summary: Growth inhibition of human HCT116 cells after 48 hrs by sulforhodamine B assay
Type: functional
condition: HCT-116, 48 h
endpoint: GI50
// return the numeric value with its unit appended

Past entries and their recorded results:
COc1cc(C)cc(-c2nn(CC#N)cc2-c2ccc(-c3cccc(C(C)=O)c3)nc2)c1: 2330 nM
Cc1cc(O)cc(-c2nn(CC#N)cc2-c2ccnc(-c3ccc(N(C)C)cc3)c2)c1: 2710 nM
COc1cc(C)cc(-c2c(-c3ccnc(-c4ccc(N(C)C)cc4)c3)cnn2CC#N)c1: 50.1 nM
COc1cc(C)cc(-c2c(-c3ccnc(-c4ccc(C(C)=O)cc4)c3)cnn2CC#N)c1: 1700 nM

Request: Identify the measured GI50 of "COc1cc(C)cc(-c2nn(CC#N)cc2-c2ccnc(-c3ccc(N(C)C)cc3)c2)c1" for HCT-116.
Result: 353 nM

Request: Identify the measured GI50 of "Cc1cc(O)cc(-c2nn(CC#N)cc2-c2ccnc(-c3ccc(Oc4ccccc4)cc3)c2)c1" for HCT-116.
Result: 1560 nM

====

Reported TGI values for the following compounds.
Tested on: NCI-H23
assay summary: Growth inhibition of human NCI-H23 cells after 48 hrs by sulforhodamine B assay
Assay type: functional
condition: NCI-H23, 48 h

Past entries and their recorded results:
Cc1cc(O)cc(-c2nn(CC#N)cc2-c2ccnc(-c3ccc(N(C)C)cc3)c2)c1: 24.8 µM
COc1cc(C)cc(-c2nn(CC#N)cc2-c2ccnc(-c3ccc(N(C)C)cc3)c2)c1: > 100 µM
Cc1cc(O)cc(-c2nn(CC#N)cc2-c2ccnc(-c3ccc(Oc4ccccc4)cc3)c2)c1: 3.97 µM
COc1cc(C)cc(-c2nn(CC#N)cc2-c2ccc(-c3cccc(C(C)=O)c3)nc2)c1: 84 µM
COc1cc(C)cc(-c2c(-c3ccnc(-c4ccc(C(C)=O)cc4)c3)cnn2CC#N)c1: > 100 µM

Request: Identify the measured TGI of "COc1cc(C)cc(-c2c(-c3ccnc(-c4ccc(N(C)C)cc4)c3)cnn2CC#N)c1" for NCI-H23.
Result: > 100 µM

====

System: CCRF-CEM
assay summary: Cytotoxicity against human CCRF-CEM cells assessed as cell growth at 100 nM after 48 hrs by sulforhodamine B assay
Format: functional
condition: read-out: Activity
Please mark 1 if the recorded growth at 0.1 µM is equal to or greater than 80%, and -1 if it falls below.

COc1cc(C)cc(-c2c(-c3ccnc(-c4ccc(C(C)=O)cc4)c3)cnn2CC#N)c1: 1
COc1cc(C)cc(-c2nn(CC#N)cc2-c2ccc(-c3cccc(C(C)=O)c3)nc2)c1: -1
COc1cc(C)cc(-c2c(-c3ccnc(-c4ccc(N(C)C)cc4)c3)cnn2CC#N)c1: -1

Request: Could you please find out whether "Cc1cc(O)cc(-c2nn(CC#N)cc2-c2ccnc(-c3ccc(N(C)C)cc3)c2)c1" has growth at 0.1 µM that meets 80% or exceeds it?
Result: 1

Request: Could you please find out whether "Cc1cc(O)cc(-c2nn(CC#N)cc2-c2ccnc(-c3ccc(Oc4ccccc4)cc3)c2)c1" has growth at 0.1 µM that meets 80% or exceeds it?
Result: 1

Request: Could you please find out whether "COc1cc(C)cc(-c2nn(CC#N)cc2-c2ccnc(-c3ccc(N(C)C)cc3)c2)c1" has growth at 0.1 µM that meets 80% or exceeds it?
Result: -1

====

System: A498
assay summary: Cytotoxicity against human A498 cells assessed as cell growth at 100 nM after 48 hrs by sulforhodamine B assay
Type: functional
condition: A498, 48 h, read-out: Activity
Please mark satisfied if the recorded growth at 0.1 µM is equal to or greater than 60%, and not satisfied if it falls below.

Cc1cc(O)cc(-c2nn(CC#N)cc2-c2ccnc(-c3ccc(Oc4ccccc4)cc3)c2)c1: satisfied

Request: Could you please find out whether "Cc1cc(O)cc(-c2nn(CC#N)cc2-c2ccnc(-c3ccc(N(C)C)cc3)c2)c1" has growth at 0.1 µM that meets 60% or exceeds it?
Result: satisfied

Request: Could you please find out whether "COc1cc(C)cc(-c2c(-c3ccnc(-c4ccc(N(C)C)cc4)c3)cnn2CC#N)c1" has growth at 0.1 µM that meets 60% or exceeds it?
Result: not satisfied

Request: Could you please find out whether "COc1cc(C)cc(-c2c(-c3ccnc(-c4ccc(C(C)=O)cc4)c3)cnn2CC#N)c1" has growth at 0.1 µM that meets 60% or exceeds it?
Result: satisfied

Request: Could you please find out whether "COc1cc(C)cc(-c2nn(CC#N)cc2-c2ccnc(-c3ccc(N(C)C)cc3)c2)c1" has growth at 0.1 µM that meets 60% or exceeds it?
Result: not satisfied

Request: Could you please find out whether "COc1cc(C)cc(-c2nn(CC#N)cc2-c2ccc(-c3cccc(C(C)=O)c3)nc2)c1" has growth at 0.1 µM that meets 60% or exceeds it?
Result: not satisfied

====

System: UACC-62
assay summary: Growth inhibition of human UACC62 cells after 48 hrs by sulforhodamine B assay
Type: functional
condition: UACC-62, 48 h
Reported TGI values for the following molecules.

Past entries and their recorded results:
Cc1cc(O)cc(-c2nn(CC#N)cc2-c2ccnc(-c3ccc(Oc4ccccc4)cc3)c2)c1: 18.1 µM
COc1cc(C)cc(-c2nn(CC#N)cc2-c2ccnc(-c3ccc(N(C)C)cc3)c2)c1: 40.7 µM
COc1cc(C)cc(-c2c(-c3ccnc(-c4ccc(C(C)=O)cc4)c3)cnn2CC#N)c1: > 100 µM
COc1cc(C)cc(-c2nn(CC#N)cc2-c2ccc(-c3cccc(C(C)=O)c3)nc2)c1: > 100 µM
Cc1cc(O)cc(-c2nn(CC#N)cc2-c2ccnc(-c3ccc(N(C)C)cc3)c2)c1: 14 µM

Query molecule follows.
Request: Query (molecule): "COc1cc(C)cc(-c2c(-c3ccnc(-c4ccc(N(C)C)cc4)c3)cnn2CC#N)c1" ; field requested: TGI
Result: > 100 µM

====

Reported growth at 1 µM values for the following compounds.
Test system: SNB-19
assay summary: Cytotoxicity against human SNB19 cells assessed as cell growth at 1 uM after 48 hrs by sulforhodamine B assay
Format: functional
condition: SNB-19, 48 h, read-out: Activity
Enter your answer as a number in %; do not include the unit.

Request: Query (compound): "Cc1cc(O)cc(-c2nn(CC#N)cc2-c2ccnc(-c3ccc(Oc4ccccc4)cc3)c2)c1" ; field requested: growth at 1 µM
Result: 55

Request: Query (compound): "Cc1cc(O)cc(-c2nn(CC#N)cc2-c2ccnc(-c3ccc(N(C)C)cc3)c2)c1" ; field requested: growth at 1 µM
Result: 28

Request: Query (compound): "COc1cc(C)cc(-c2nn(CC#N)cc2-c2ccc(-c3cccc(C(C)=O)c3)nc2)c1" ; field requested: growth at 1 µM
Result: 39

Request: Query (compound): "COc1cc(C)cc(-c2c(-c3ccnc(-c4ccc(N(C)C)cc4)c3)cnn2CC#N)c1" ; field requested: growth at 1 µM
Result: 36

Request: Query (compound): "COc1cc(C)cc(-c2nn(CC#N)cc2-c2ccnc(-c3ccc(N(C)C)cc3)c2)c1" ; field requested: growth at 1 µM
Result: 19

Request: Query (compound): "COc1cc(C)cc(-c2c(-c3ccnc(-c4ccc(C(C)=O)cc4)c3)cnn2CC#N)c1" ; field requested: growth at 1 µM
Result: 60

====

Tested on: UO-31
assay summary: Growth inhibition of human UO31 cells after 48 hrs by sulforhodamine B assay
Assay type: functional
condition: UO-31, 48 h, read-out: LC50 (the source's name)
endpoint: CC50

COc1cc(C)cc(-c2nn(CC#N)cc2-c2ccnc(-c3ccc(N(C)C)cc3)c2)c1: > 100 µM
Cc1cc(O)cc(-c2nn(CC#N)cc2-c2ccnc(-c3ccc(Oc4ccccc4)cc3)c2)c1: 31.7 µM
Cc1cc(O)cc(-c2nn(CC#N)cc2-c2ccnc(-c3ccc(N(C)C)cc3)c2)c1: > 100 µM
COc1cc(C)cc(-c2c(-c3ccnc(-c4ccc(C(C)=O)cc4)c3)cnn2CC#N)c1: > 100 µM
COc1cc(C)cc(-c2nn(CC#N)cc2-c2ccc(-c3cccc(C(C)=O)c3)nc2)c1: > 100 µM

Query molecule follows.
Request: Identify the measured CC50 of "COc1cc(C)cc(-c2c(-c3ccnc(-c4ccc(N(C)C)cc4)c3)cnn2CC#N)c1" for UO-31.
Result: > 100 µM

====

Test system: MDA-MB-435
assay summary: Cytotoxicity against human MDA-MB-435 cells assessed as cell growth at 10 uM after 48 hrs by sulforhodamine B assay
Format: functional
condition: MDA-MB-435, 48 h, read-out: Activity
endpoint: growth at 10 µM (%)
Enter your answer as a number in %; do not include the unit.

Past entries and their recorded results:
COc1cc(C)cc(-c2c(-c3ccnc(-c4ccc(N(C)C)cc4)c3)cnn2CC#N)c1: -23
Cc1cc(O)cc(-c2nn(CC#N)cc2-c2ccnc(-c3ccc(N(C)C)cc3)c2)c1: -31
COc1cc(C)cc(-c2nn(CC#N)cc2-c2ccc(-c3cccc(C(C)=O)c3)nc2)c1: -22

Request: Identify the measured growth at 10 µM of "COc1cc(C)cc(-c2nn(CC#N)cc2-c2ccnc(-c3ccc(N(C)C)cc3)c2)c1" for MDA-MB-435.
Result: -2

Request: Identify the measured growth at 10 µM of "COc1cc(C)cc(-c2c(-c3ccnc(-c4ccc(C(C)=O)cc4)c3)cnn2CC#N)c1" for MDA-MB-435.
Result: 16

Request: Identify the measured growth at 10 µM of "Cc1cc(O)cc(-c2nn(CC#N)cc2-c2ccnc(-c3ccc(Oc4ccccc4)cc3)c2)c1" for MDA-MB-435.
Result: -59

These entries and their values trace back to ChEMBL document CHEMBL1165950.
